- measuredTarget: GABAA α5β3γ2 subtype receptor (Homo sapiens, UniProt P18507+P31644)
- Construct: myc-His (vector-encoded); expressed in transfected cells; host or cells: Xenopus laevis oocytes injected with cDNAs
- Sequence (P31644 32-462): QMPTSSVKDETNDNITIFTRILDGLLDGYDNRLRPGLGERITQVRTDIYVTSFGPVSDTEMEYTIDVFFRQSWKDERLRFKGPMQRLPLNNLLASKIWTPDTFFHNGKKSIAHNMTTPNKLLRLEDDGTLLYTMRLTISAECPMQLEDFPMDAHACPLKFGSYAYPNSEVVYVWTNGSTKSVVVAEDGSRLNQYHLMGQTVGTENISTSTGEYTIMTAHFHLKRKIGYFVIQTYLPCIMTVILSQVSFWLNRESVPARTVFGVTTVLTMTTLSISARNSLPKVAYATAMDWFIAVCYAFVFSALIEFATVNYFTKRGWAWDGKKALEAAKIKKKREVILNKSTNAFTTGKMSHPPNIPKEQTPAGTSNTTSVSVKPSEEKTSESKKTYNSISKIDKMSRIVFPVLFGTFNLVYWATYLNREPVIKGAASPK
- Sequence (P28472 26-473 partner): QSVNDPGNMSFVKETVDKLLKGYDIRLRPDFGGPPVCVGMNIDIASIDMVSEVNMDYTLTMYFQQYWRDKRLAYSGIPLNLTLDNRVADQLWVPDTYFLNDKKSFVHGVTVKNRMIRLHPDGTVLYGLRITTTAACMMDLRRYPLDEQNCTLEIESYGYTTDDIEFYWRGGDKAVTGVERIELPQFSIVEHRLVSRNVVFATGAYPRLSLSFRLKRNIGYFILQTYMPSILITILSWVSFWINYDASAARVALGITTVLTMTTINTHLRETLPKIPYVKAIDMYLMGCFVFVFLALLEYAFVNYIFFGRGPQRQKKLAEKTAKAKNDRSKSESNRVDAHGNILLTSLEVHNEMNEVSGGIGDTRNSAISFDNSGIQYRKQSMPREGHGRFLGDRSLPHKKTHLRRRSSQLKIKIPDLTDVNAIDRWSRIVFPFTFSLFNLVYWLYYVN
- Sequence (P18507 40-467 limits assumed): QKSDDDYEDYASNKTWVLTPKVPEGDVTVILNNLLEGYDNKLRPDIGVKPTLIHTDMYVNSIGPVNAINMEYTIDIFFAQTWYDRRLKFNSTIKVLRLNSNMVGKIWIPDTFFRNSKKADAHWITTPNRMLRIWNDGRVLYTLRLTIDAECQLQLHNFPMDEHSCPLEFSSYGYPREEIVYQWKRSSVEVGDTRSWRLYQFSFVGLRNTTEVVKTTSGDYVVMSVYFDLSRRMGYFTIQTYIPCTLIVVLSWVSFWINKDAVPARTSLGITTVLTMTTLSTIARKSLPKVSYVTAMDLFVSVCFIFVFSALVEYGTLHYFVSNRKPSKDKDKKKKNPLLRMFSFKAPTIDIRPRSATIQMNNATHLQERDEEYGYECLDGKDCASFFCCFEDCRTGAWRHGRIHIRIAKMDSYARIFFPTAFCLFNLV
- assayNotes: GABA-gated Cl- current potentiation in Xenopus oocytes expressing GABAA α5β3γ2 (TEVC)
- Type: cell-based
- assayConditions: read-out: GABA α5 EC50 % potentiation
Provide the reported activation at 1 µM of each item.
One number for each entry, in %.

Take a look at these entries with their results.
| compound | measuredTarget | activation at 1 µM / % |
| --- | --- | --- |
| CN(C)C(=O)c1c(-c2ccccc2)cnnc1-c1ccccc1 | GABAA α5β3γ2 subtype receptor (Homo sapiens, UniProt P18507+P31644) | 42 |
| NC(=O)c1c(-c2ccccc2)cnnc1-c1ccccc1 | GABAA α5β3γ2 subtype receptor (Homo sapiens, UniProt P18507+P31644) | 11.1 |
| COC(=O)C1COC(c2c(-c3ccccc3)cnnc2-c2ccccc2)=N1 (centres unmarked) | GABAA α5β3γ2 subtype receptor (Homo sapiens, UniProt P18507+P31644) | 8.6 |
| COc1cccc(-c2nncc(-c3ccccc3)c2C(=O)O)c1 | GABAA α5β3γ2 subtype receptor (Homo sapiens, UniProt P18507+P31644) | 19.2 |

Kindly consider the entry below.
Please give the measured activation at 1 µM for this compound: CC1COC(c2c(-c3ccccc3)cnnc2-c2ccccc2)=N1 (centres unmarked) 5.3

* * *

- measuredTarget: GABAA α5β3γ2 subtype receptor (Homo sapiens, UniProt P18507+P31644)
- Construct: myc-His (vector-encoded); expressed in transfected cells; host or cells: Xenopus laevis oocytes injected with cDNAs
- assayNotes: GABA-gated Cl- current potentiation in Xenopus oocytes expressing GABAA α5β3γ2 (TEVC)
- Format: cell-based
- assayConditions: read-out: GABA α5 EC50 % potentiation
- Source text: Step 1: Establish Clones of GABAAR Subunits (α5, β3, γ2, α1, α2 and α3) and Prepare the Corresponding cRNAs: Human clones of GABAA-R α5, β3, γ2, α1, α2 and α3 subunits are obtained from commercial resources (e.g., OriGene, http://www.origene.com and Genescript, http://www.genescript.com). These clones are engineered into pRC, pCDM, pcDNA, and pBluescript KSM vector (for oocyte expression) or other equivalent expression vectors. […] Results are expressed as mean±SEM.
activation at 1 µM of 10% or higher: MET. Under 10%: NOT MET.

Would you please look over these solved cases?
| compound | qualitativeLabel |
| --- | --- |
| CNC(=O)c1c(-c2ccccc2)cnnc1-c1ccccc1 [Compound 1] | NOT MET |
| COC(=O)c1coc(-c2c(-c3ccccc3)cnnc2-c2cccc(Cl)c2)n1 [Compound 27] | MET |

Now look at this one.
Test whether the compound COC(=O)c1coc(-c2c(-c3ccccc3)cnnc2-c2cccc(OC)c2)n1 [Compound 29] records activation at 1 µM of 10% or higher. MET

* * *

- measuredTarget: GABAA α5β3γ2 subtype receptor (Homo sapiens, UniProt P18507+P31644)
- Construct: myc-His (vector-encoded); expressed in transfected cells; host or cells: Xenopus laevis oocytes injected with cDNAs
- assayNotes: GABA-gated Cl- current potentiation in Xenopus oocytes expressing GABAA α5β3γ2 (TEVC)
- Type: cell-based
- assayConditions: read-out: GABA α5 EC50 % potentiation
propertyLabel: activation at 1 µM (%)
Give bare numbers, in %.

Dear colleague, could you send me activation at 1 µM for each of the items below? Thanks.
1. O=C(NCc1ccccc1)c1c(-c2ccccc2)cnnc1-c1ccccc1
2. COc1cccc(-c2nncc(-c3ccccc3)c2-c2nc(C)co2)c1
3. CCc1coc(-c2c(-c3ccccc3)cnnc2-c2ccccc2)n1
4. COC(=O)c1coc(-c2c(-c3ccccc3)cnnc2-c2ccccc2)n1
5. CC(C)NC(=O)c1c(-c2ccccc2)cnnc1-c1ccccc1

1. 10
2. 6
3. 8.6
4. 15.8
5. 8.2

Fill in the blank: the reported activation at 1 µM of O=C(c1c(-c2ccccc2)cnnc1-c1ccccc1)N(Cc1ccccc1)Cc1ccccc1 is ____. 4.6
